Consider the following compounds; for each one, report its Normalized ratio of PI uptake (10 μM).
targetSystem: TRPM7 (Mus musculus)
Construct: expressed in transfected cells; host or cells: HEK-293 tSA (HEK-293T) cells, transient transfection with Lipofectamine 2000
Sequence (Q923J1 whole entry): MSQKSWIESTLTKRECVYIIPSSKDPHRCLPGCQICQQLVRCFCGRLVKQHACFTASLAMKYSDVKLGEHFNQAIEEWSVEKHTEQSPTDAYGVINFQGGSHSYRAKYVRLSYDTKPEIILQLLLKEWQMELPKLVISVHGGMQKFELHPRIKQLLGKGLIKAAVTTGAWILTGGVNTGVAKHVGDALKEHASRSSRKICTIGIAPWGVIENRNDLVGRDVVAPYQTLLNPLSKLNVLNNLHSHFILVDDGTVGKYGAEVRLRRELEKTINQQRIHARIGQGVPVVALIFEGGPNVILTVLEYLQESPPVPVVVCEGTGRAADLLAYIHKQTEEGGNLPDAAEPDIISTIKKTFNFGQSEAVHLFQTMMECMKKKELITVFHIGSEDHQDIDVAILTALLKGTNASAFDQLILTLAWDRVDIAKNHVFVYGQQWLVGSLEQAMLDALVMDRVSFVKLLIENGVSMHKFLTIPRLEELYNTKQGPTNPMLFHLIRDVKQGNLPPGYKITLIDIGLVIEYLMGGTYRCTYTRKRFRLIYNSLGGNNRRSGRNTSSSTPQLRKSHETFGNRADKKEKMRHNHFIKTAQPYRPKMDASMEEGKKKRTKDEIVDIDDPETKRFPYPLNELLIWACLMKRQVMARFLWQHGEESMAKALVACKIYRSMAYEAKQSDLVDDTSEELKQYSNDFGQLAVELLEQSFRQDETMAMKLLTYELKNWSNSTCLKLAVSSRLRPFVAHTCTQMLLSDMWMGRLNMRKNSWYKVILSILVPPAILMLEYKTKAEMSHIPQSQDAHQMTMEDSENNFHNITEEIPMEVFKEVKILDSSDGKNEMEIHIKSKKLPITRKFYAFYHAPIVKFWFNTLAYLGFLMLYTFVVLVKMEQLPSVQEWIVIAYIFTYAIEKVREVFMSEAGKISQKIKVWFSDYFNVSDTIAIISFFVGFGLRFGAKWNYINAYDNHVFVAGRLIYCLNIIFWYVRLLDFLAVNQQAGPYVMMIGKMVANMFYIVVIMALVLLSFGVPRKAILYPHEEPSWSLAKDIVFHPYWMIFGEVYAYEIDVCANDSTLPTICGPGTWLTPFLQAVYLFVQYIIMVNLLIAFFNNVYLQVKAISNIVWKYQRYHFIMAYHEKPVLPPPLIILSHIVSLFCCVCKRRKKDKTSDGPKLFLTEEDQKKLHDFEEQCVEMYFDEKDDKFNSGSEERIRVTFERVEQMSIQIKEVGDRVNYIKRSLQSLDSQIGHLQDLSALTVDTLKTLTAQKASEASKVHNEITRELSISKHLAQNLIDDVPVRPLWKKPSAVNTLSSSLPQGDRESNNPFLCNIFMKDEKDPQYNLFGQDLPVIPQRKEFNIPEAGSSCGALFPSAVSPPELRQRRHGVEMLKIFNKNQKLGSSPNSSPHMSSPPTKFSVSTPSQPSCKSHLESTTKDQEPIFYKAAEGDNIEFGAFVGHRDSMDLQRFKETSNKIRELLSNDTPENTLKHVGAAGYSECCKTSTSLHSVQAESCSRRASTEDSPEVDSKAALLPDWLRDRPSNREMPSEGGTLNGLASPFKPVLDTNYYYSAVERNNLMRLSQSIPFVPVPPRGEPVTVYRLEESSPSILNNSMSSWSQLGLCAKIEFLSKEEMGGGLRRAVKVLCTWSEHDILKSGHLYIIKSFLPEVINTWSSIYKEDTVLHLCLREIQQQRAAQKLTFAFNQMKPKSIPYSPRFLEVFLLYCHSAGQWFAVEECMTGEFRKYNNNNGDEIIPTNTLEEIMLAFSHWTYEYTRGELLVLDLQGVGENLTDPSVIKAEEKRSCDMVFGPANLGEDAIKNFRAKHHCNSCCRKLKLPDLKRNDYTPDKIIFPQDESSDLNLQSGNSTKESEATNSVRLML
test: PI uptake cell death assay in TRPM7-expressing HEK-293 cells (type of assay from Example 1)
Format: cell-based, murine
measurementConditions: 10 μM; Table Y, commercially available compounds
Protocol: The TRPM7 channel provides a pathway for mono- and divalent cations into the cell, and is unique in that it contains a functional C-terminal α-kinase domain. […] Alternatively, this activation can also be measured using radiolabelled Ca2+ (^45Ca^2+) as described previously by Sattler et al. (Sattler et al., 1998) and Aarts et al. (Aarts et al., 2003). […] Cell death, as assessed by PI uptake, was examined at the end of the 2 hour calcium uptake assay. […]
Hey, just send me the number, nothing else.

Would you kindly share the measured Normalized ratio of PI uptake (10 μM) for Cc1c(Cc2ccccc2)c(=O)oc2cc(O)cc(O)c12 [STOCK1N- 70089 #1, reference compound] ?
0.005

And then COc1ccccc1C(C)N(C)C(=O)c1cc2ccccc2s1 (stereo not drawn) [T6681713 #6, reference compound] , what is it?
0.059

And then CCN(CC)Cc1c(O)ccc2c(C)c(Cc3ccccc3)c(=O)oc12 [STOCK4S- 10213 #1, reference compound] , what is it?
0.242

###

targetSystem: TRPM7 (Mus musculus)
Construct: expressed in transfected cells; host or cells: HEK-293 tSA (HEK-293T) cells, transient transfection with Lipofectamine 2000
test: PI uptake cell death assay in TRPM7-expressing HEK-293 cells (type of assay from Example 1)
Format: cell-based, murine
measurementConditions: Table X
endpoint: IC50 (µM)
Numeric answer only, unit µM assumed.

Would you kindly share the measured IC50 for Cc1c(Cc2ccc(Cl)c(Cl)c2)c(=O)oc2cc(O)ccc12 [Compound M21] ?
4.97

And then COc1cc2c(cc1OC)C(c1sc3cc(C(F)(F)F)ccc3c1Cl)NCC2 (stereo not drawn) [Compound 72] , what is it?
0.39

And then Cc1ccc2c(c1)CCCN2C(=O)c1sc2ccccc2c1Cl [Compound 2] , what is it?
3.27

And then COc1cc2c(cc1OC)C(c1sc3cc(OC)c(OC)cc3c1Cl)=NCC2 [Compound 120] , what is it?
2.55

And then Cc1ccc2c(c1)CCCN2C(=O)c1sc2cc(C(F)(F)F)ccc2c1Cl [Compound 46] , what is it?
1.88

And then COc1ccc(C)c(N(CC(=O)c2cccs2)C(=O)c2sc3ccccc3c2Cl)c1 [Compound 103] , what is it?
0.81

And then COc1ccc2c(Cl)c(C3NCCc4cc(OC)c(OC)cc43)sc2c1 (stereo not drawn) [Compound 71] , what is it?
0.42

And then COc1cc(OC)c2c(C)c(Cc3ccc(Cl)c(Cl)c3)c(=O)[nH]c2c1 [Compound 130] , what is it?
0.93

And then COc1ccc2sc(C3=NCCc4cc(OC)c(OC)cc43)c(Cl)c2c1 [Compound 70] , what is it?
0.47

And then CCCc1c(Cc2ccc(Cl)c(Cl)c2)c(=O)[nH]c2cc(O)cc(O)c12 [Compound 136] , what is it?
18.4

And then COc1cc(OC)c2c(C)c(Cc3ccc(F)cc3)c(=O)[nH]c2c1 [Compound 138] , what is it?
0.47

And then COc1ccc2c(Cl)c(C3=NCCc4cc(OC)c(OC)cc43)sc2c1 [Compound 67] , what is it?
0.37
